- System: Saccharomyces cerevisiae BY4741 SeMeCo community
- method-summary: z-score of subpopulation abundance vs DMSO median, subpopulation auxotrophic for HM; higher = larger share of this subpopulation than in DMSO controls
- study-conditions: 10 µM; 24 h; SM minimal medium; subpopulation (auxotrophy): HM
Structures can show the parent of a compound that is named as a salt.
Lab note: anything with z-score of subpopulation abundance at or over -0.04 counts as T; the rest go in F.

Below are worked cases with known answers.
compound | class-name
COc1cc2c(cc1OC)C(=O)C(CC1CCN(Cc3ccccc3)CC1)C2 (stereo unspecified) [Donepezil HCl] | F
Oc1c(Cl)cc(Cl)c(Cl)c1Cc1c(O)c(Cl)cc(Cl)c1Cl | T
Cc1c(Nc2ncccc2C(=O)O)cccc1C(F)(F)F | F
CO/N=C1\C[C@]2(C[C@@H]3C[C@@H](C/C=C(\C)C[C@@H](C)/C=C/C=C4\CO[C@@H]5[C@H](O)C(C)=C[C@@H](C(=O)O3)[C@]45O)O2)O[C@H](/C(C)=C/C(C)C)[C@H]1C | T
C[C@@H]1[C@H](O)[C@@H](C)/C=C/C=C/C=C/C=C/C=C/C=C/C=C/[C@H](O[C@@H]2O[C@H](C)[C@@H](O)[C@H](N)[C@@H]2O)C[C@@H]2O[C@](O)(C[C@@H](O)C[C@@H](O)[C@H](O)CC[C@@H](O)C[C@@H](O)CC(=O)O[C@H]1C)C[C@H](O)[C@H]2C(=O)O | T

Please turn your attention to the following entry.
Req: For this compound, is measured z-score of subpopulation abundance -0.04 or higher? CNCCCC1c2ccccc2C=Cc2ccccc21 [Protriptyline hydrochloride]
Resp: F
